- Tested system: recombinant CK2A1 (Homo sapiens, UniProt P68400)
- Construct: purchased Invitrogen
- Sequence (P68400 whole entry): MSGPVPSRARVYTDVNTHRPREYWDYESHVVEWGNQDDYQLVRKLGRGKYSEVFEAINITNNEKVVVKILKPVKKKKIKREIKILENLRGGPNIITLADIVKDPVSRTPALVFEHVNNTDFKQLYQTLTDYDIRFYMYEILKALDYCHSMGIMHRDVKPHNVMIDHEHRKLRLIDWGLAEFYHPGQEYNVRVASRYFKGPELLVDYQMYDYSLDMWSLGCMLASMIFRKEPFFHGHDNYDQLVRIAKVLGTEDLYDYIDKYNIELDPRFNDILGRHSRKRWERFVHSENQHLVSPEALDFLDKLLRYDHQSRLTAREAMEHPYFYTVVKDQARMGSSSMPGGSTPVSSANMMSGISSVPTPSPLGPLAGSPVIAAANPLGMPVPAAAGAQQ
- Test: CK2 kinase assay (CK2A1), [γ-33P]ATP filter-binding
- Type: biochemical
- Assay setup: recombinant CK2A1 10 nM, ATP 25 μM, 10 μM peptide substrate, 30° C. 1 h
Parameter: IC50 (nM)

Worked cases, IC50 given:
1. O=C(Nc1ccnc(Cl)c1)c1cnc2c(NC3CC3)cc(N[C@H]3CC[C@H](NC(=O)C4COCCN4)CC3)nn12 (stereo partly shown)    3.6
2. N[C@H]1CC[C@H](Nc2cc(Nc3ncccc3O)c3ncc(C(=O)Nc4ccncc4)n3n2)CC1    205

[1] CC(=O)Nc1cccc(NC(=O)c2cnc3c(NC4CC4)cc(N[C@H]4CC[C@H](N)CC4)nn23)c1
[2] N[C@H]1CC[C@H](Nc2cc(NC3CC3)c3ncc(C(=O)Nc4ccncc4F)n3n2)CC1
[3] COCCNC(=O)N[C@H]1CC[C@H](Nc2cc(NC3CC3)c3ncc(C(=O)Nc4ccnc(Cl)c4)n3n2)CC1
[4] COC(=O)CN[C@H]1CC[C@H](Nc2cc(NC3CC3)c3ncc(C(=O)Nc4ccncc4F)n3n2)CC1
[5] N[C@H]1CC[C@H](Nc2cc(Nc3cccc(N4CCNCC4)n3)c3ncc(C(=O)Nc4ccncc4F)n3n2)CC1
## Task Arrange these 5 molecules in increasing order of IC50. Output spec: a listing of the labels in the requested order.
## Result 2, 3, 4, 5, 1

---

- System: HCT116
- Test: Cell proliferation inhibition assay (MTT, CellTiter96)
- Type: cell-based
- Assay setup: Homo sapiens, HCT-116; HCT116 cells, 72 h with compound, MTT readout
Parameter: IC50 (nM)

1. C[C@@H](O)CC(=O)N[C@H]1CC[C@H](Nc2cc(NC3CC3)c3ncc(C(=O)Nc4ccnc(Cl)c4)n3n2)CC1    220

[a] N[C@H]1CC[C@H](Nc2cc(NC3CC3)c3ncc(C(=O)Nc4ccnc(F)c4)n3n2)CC1 [Example 25C]
[b] O=C(Nc1ccnc(Cl)c1)c1cnc2c(NC3CC3)cc(N[C@H]3CC[C@H](NC(=O)C4COCCN4)CC3)nn12 (stereo partly shown)
## Task Hi there! Just curious which has the higher IC50 between a and b . Give the chosen item's label as your response.
## Result a
(a: 170 nM, b: 90 nM)

---

- Tested system: recombinant CK2A2 (Homo sapiens)
- Construct: purchased Upstate Biotechnology
- Sequence (P19784 whole entry): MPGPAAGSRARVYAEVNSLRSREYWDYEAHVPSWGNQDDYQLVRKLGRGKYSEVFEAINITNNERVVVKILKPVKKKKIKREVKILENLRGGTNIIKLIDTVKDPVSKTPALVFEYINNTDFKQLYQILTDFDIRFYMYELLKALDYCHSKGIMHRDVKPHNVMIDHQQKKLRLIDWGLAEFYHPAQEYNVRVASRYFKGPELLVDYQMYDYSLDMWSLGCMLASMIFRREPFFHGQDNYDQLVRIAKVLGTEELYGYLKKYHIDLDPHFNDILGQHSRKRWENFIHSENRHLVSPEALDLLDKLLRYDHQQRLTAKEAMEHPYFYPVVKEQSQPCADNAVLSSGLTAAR
- Test: CK2 kinase assay (CK2A2), [γ-33P]ATP filter-binding
- Type: biochemical
- Assay setup: recombinant CK2A2 5 nM, ATP 5 μM, 10 μM peptide substrate, 30° C. 1 h
pIC50: −log10 of the molar value.
Parameter: pIC50

1) N[C@H](Cc1cscn1)C(=O)N[C@H]1CC[C@H](Nc2cc(NC3CC3)c3ncc(C(=O)Nc4ccnc(Cl)c4)n3n2)CC1 (relative stereo)    9.15
2) O=C(Nc1ccncc1F)c1cnc2c(NC3CC3)cc(N[C@H]3CC[C@H](NC(=O)[C@H]4CCCN4)CC3)nn12    8.00
3) NCCN[C@H]1CC[C@H](Nc2cc(NC3CC3)c3ncc(C(=O)Nc4ccnc(F)c4)n3n2)CC1    7.21
4) N[C@H]1CC[C@H](Nc2cc(NC3CCC3)c3ncc(C(=O)Nc4ccncc4)n3n2)CC1    7.82
5) C[C@H](CN)C(=O)N[C@H]1CC[C@H](Nc2cc(NC3CC3)c3ncc(C(=O)Nc4ccnc(Cl)c4)n3n2)CC1    8.82

[A] NCC(=O)N[C@H]1CC[C@H](Nc2cc(NC3CC3)c3ncc(C(=O)Nc4ccnc(Cl)c4)n3n2)CC1
[B] Cc1cc(Nc2cc(N[C@H]3CC[C@H](N)CC3)nn3c(C(=O)Nc4ccnc(Cl)c4)cnc23)nn1C
[C] O=C(Nc1ccnc(F)c1)c1cnc2c(NC3CC3)cc(N[C@H]3CC[C@H](NC(=O)C4CCCNC4)CC3)nn12 (some centres unmarked)
[D] COCCNC(=O)N[C@H]1CC[C@H](Nc2cc(NC3CC3)c3ncc(C(=O)Nc4ccnc(Cl)c4)n3n2)CC1
[E] N[C@H]1CC[C@H](Nc2cc(NC3CC3)c3ncc(C(=O)Nc4ccncc4)n3n2)CC1
## Task Arrange these 5 compounds in increasing order of pIC50. Output spec: a listing of the labels in the requested order.
## Result C, B, E, D, A

---

- Tested system: recombinant CK2A1 (Homo sapiens, UniProt P68400)
- Construct: purchased Invitrogen
- Test: CK2 kinase assay (CK2A1), [γ-33P]ATP filter-binding
- Format: biochemical
- Assay setup: recombinant CK2A1 10 nM, ATP 25 μM, 10 μM peptide substrate, 30° C. 1 h
Parameter: IC50 (nM)

Worked cases, IC50 given:
1) NCCCC(=O)N[C@H]1CC[C@H](Nc2cc(NC3CC3)c3ncc(C(=O)Nc4ccnc(F)c4)n3n2)CC1    199
2) CCN(C)C(=O)N[C@H]1CC[C@H](Nc2cc(NC3CC3)c3ncc(C(=O)Nc4ccnc(Cl)c4)n3n2)CC1    62.6
3) N[C@H](Cc1cscn1)C(=O)N[C@H]1CC[C@H](Nc2cc(NC3CC3)c3ncc(C(=O)Nc4ccnc(Cl)c4)n3n2)CC1 (relative stereo)    13.8
4) Cc1cc(Nc2cc(N[C@H]3CC[C@H](N)CC3)nn3c(C(=O)Nc4ccnc(Cl)c4)cnc23)nn1C    71
5) Nc1cc(N[C@H]2CC[C@H](N)CC2)nn2c(C(=O)Nc3ccncc3)cnc12    102

[a] CN(C)CCOc1ccc(Nc2cc(N[C@H]3CC[C@H](N)CC3)nn3c(C(=O)Nc4ccncc4F)cnc23)cc1
[b] O=C(Nc1ccnc(Cl)c1)c1cnc2c(NC3CC3)cc(NC3CCSCC3)nn12
## Task Given a and given b , which shows the smaller recorded IC50? Give the chosen item's label as your response.
## Result a

---

- Tested system: recombinant CK2A2 (Homo sapiens)
- Construct: purchased Upstate Biotechnology
- Test: CK2 kinase assay (CK2A2), [γ-33P]ATP filter-binding
- Type: biochemical
- Assay setup: recombinant CK2A2 5 nM, ATP 5 μM, 10 μM peptide substrate, 30° C. 1 h
pIC50: −log10 of the molar value.
Parameter: pIC50

Worked cases, pIC50 given:
1) CN(C)CCOc1ccc(Nc2cc(N[C@H]3CC[C@H](N)CC3)nn3c(C(=O)Nc4ccncc4F)cnc23)cc1    7.06
2) Cc1cc(Nc2cc(N[C@H]3CC[C@H](O)CC3)nn3c(C(=O)Nc4ccnc(Cl)c4)cnc23)nn1C    8.68
3) N[C@H]1CC[C@H](Nc2cc(Nc3ccccc3)c3ncc(C(=O)Nc4ccncn4)n3n2)CC1    7.38

[1] N[C@H]1CC[C@H](Nc2cc(N[C@H]3C[C@@H](CO)C3)c3ncc(C(=O)Nc4ccncc4F)n3n2)CC1
[2] O=C(Nc1ccnc(Cl)c1)c1cnc2c(NC3CC3)cc(NC3CCSCC3)nn12
[3] N[C@H](Cc1cccnc1)C(=O)N[C@H]1CC[C@H](Nc2cc(NC3CC3)c3ncc(C(=O)Nc4ccnc(Cl)c4)n3n2)CC1
[4] CN[C@H](C)C(=O)N[C@H]1CC[C@H](Nc2cc(NC3CC3)c3ncc(C(=O)Nc4ccnc(Cl)c4)n3n2)CC1 (relative stereo)
## Task Arrange these 4 compounds in increasing order of pIC50. Output spec: a listing of the labels in the requested order.
## Result 2, 1, 3, 4

---

- Tested system: recombinant CK2A1 (Homo sapiens, UniProt P68400)
- Construct: purchased Invitrogen
- Test: CK2 kinase assay (CK2A1), [γ-33P]ATP filter-binding
- Type: biochemical
- Assay setup: recombinant CK2A1 10 nM, ATP 25 μM, 10 μM peptide substrate, 30° C. 1 h
Parameter: IC50 (µM)

Worked cases, IC50 given:
1) CC(C)CN[C@H]1CC[C@H](Nc2cc(NC3CC3)c3ncc(C(=O)Nc4ccnc(Cl)c4)n3n2)CC1    0.331
2) CC(C)n1ccc(Nc2cc(N[C@H]3CC[C@H](NC(=O)CC#N)CC3)nn3c(C(=O)Nc4ccnc(Cl)c4)cnc23)n1    0.0055

[P] CN[C@H](C)C(=O)N[C@H]1CC[C@H](Nc2cc(NC3CC3)c3ncc(C(=O)Nc4ccnc(Cl)c4)n3n2)CC1 (relative stereo)
[Q] Cc1cc(Nc2cc(N[C@H]3CC[C@H](O)CC3)nn3c(C(=O)Nc4ccnc(Cl)c4)cnc23)nn1C
## Task Given P and given Q , which shows the smaller recorded IC50? Give the chosen item's label as your response.
## Result Q
(Q: 0.0196 µM, P: 0.0385 µM)

[I] O=C(Nc1ccncc1F)c1cnc2c(NC3CC3)cc(NC3CCCC3)nn12
[II] Cc1cc(Nc2cc(N[C@H]3CC[C@H](NC(=O)CC#N)CC3)nn3c(C(=O)Nc4ccnc(Cl)c4)cnc23)no1
## Task Given I and given II , which shows the smaller recorded IC50? Give the chosen item's label as your response.
## Result II
